System: Plasmodium berghei
Experiment: Luciferase/luciferin-expressing antifolate-resistant parasites were used to infect a culture of HepG2 cells that were pre-incubated with compounds. Infected hepatocytes emit light due to the luciferase reaction. Assay results are presented as the percent inhibition of light emission compared to control. […]
Format: functional
Conditions: sporozoite, HEPG2TOX_HILL_SLOPE 1.18, HEPG2TOX_R_SQUARED 0.668, PBLUC_HILL_SLOPE 1.45, PBLUC_R_SQUARED 0.295, read-out: LUCIFERASE INFECTION ASSAY - IC50
measurementLabel: IC50

Lookup: What value of IC50 on Plasmodium berghei does O=C(c1ccco1)N1CCN(c2ncnc3c2[nH]c2ccc(F)cc23)CC1 have?
Found: > 9.03 µM
